- Assay system: P2Y purinoceptor 1 (Meleagris gallopavo)
- Sequence (P49652 whole entry): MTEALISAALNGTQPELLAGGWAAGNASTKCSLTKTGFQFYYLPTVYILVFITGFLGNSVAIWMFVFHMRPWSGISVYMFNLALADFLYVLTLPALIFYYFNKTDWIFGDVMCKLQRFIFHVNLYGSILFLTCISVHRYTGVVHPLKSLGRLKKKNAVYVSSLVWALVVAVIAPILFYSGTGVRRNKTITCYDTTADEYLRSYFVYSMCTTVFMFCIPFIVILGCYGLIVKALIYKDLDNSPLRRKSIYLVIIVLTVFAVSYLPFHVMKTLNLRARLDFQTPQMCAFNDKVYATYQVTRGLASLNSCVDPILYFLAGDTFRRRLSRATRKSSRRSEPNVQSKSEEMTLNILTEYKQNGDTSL
- Procedure text: Compounds was tested for its ability to stimulate phospholipase C activity at the P2Y purinoceptor 1 in turkey erythrocyte membranes.
pEC50: −log10 of the molar value.
Outcome: YES for pEC50 of at least 5; NO for anything lower.

>  <Sample smiles>
CCCCOc1nc(N)c2ncn([C@@H]3O[C@H](COP(=O)([O-])OP(=O)([O-])OP(=O)([O-])[O-])[C@@H](O)[C@H]3O)c2n1.[Na+].[Na+].[Na+].[Na+]

>  <Assigned label>
YES

$$$$
>  <Sample smiles>
CCCCSc1nc(N)c2ncn([C@@H]3O[C@H](COP(=O)([O-])OP(=O)([O-])OP(=O)([O-])[O-])[C@@H](O)[C@H]3O)c2n1.[Na+].[Na+].[Na+].[Na+]

>  <Assigned label>
YES

$$$$
>  <Sample smiles>
CCCCNc1nc(N)c2ncn([C@@H]3O[C@H](COP(=O)([O-])OP(=O)([O-])OP(=O)([O-])[O-])[C@@H](O)[C@H]3O)c2n1.[Na+].[Na+].[Na+].[Na+]

>  <Assigned label>
YES

$$$$
>  <Sample smiles>
CCCCOc1nc2c(N)ncnc2n1[C@@H]1O[C@H](COP(=O)(O)OP(=O)(O)OP(=O)(O)O)[C@@H](O)[C@H]1O

>  <Assigned label>
YES

$$$$
>  <Sample smiles>
CCCCNc1nc2c(N)ncnc2n1[C@@H]1O[C@H](COP(=O)(O)OP(=O)(O)OP(=O)(O)O)[C@@H](O)[C@H]1O

>  <Assigned label>
NO

$$$$
